Cited source: patent US11807625B2

assay.procedure: PK of compound of Formula (Ia) after single subcutaneous dose of solution formulations in Wistar Han rats
Assay type: in vivo
condition.label: male, Wistar Han, rat, plasma, sc, 50 mg/kg, Wistar Han rats, SC 50 mg/kg, 500 mg/mL solution X (5.00% ethanol, 1.91% poloxamer 188), 2688 h, animals #1-#3
quantity.measured: concentration at 2688 h (nM)
Value expressed in nM; do not type the unit.

Measured concentration at 2688 h, CC(C)(C#Cc1ccc(-c2ccc(Cl)c3c(NS(C)(=O)=O)nn(CC(F)(F)F)c23)c([C@H](Cc2cc(F)cc(F)c2)NC(=O)Cn2nc(C(F)(F)F)c3c2C(F)(F)[C@@H]2C[C@H]32)n1)S(C)(=O)=O [compound of Formula (Ia)] : 141
